Target: T1, human CD8 on human T cells (human, UniProt P01732 22-235; P10966 22-210)
T1 construct: whole, on cells; Target as carried by human CD3+/CD8+ T cells, PBMCs or MART-1-specific T cells; the mice were immunized with human CD8a; also called hCD8; CD8 expressed on the cell surface
T1 sequence (P01732 22-235, chain 1 of 2): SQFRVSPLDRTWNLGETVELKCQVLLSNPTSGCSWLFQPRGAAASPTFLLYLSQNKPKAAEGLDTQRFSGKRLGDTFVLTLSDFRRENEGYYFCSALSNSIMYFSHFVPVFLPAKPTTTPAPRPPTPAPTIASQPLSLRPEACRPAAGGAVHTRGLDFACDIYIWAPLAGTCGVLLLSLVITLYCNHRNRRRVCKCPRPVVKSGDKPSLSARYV
T1 sequence (P10966 22-210, chain 2 of 2): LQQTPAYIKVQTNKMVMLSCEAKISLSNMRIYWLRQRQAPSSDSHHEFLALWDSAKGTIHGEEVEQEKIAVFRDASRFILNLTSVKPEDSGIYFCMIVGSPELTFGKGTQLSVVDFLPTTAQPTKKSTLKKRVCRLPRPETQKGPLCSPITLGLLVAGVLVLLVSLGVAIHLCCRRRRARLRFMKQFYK
Experiment: flow cytometry, 0.2 nM antibody on human CD8+ T cells, anti-human IgG detection (MFI AF647)
assay.metric: binding result

1) 02-Parent-VH-M39L (antibody, V domains shown, also called murine 02A01 VH-M39L) VH: EVQLQQSGPELVKPGASLKISCKASGYTFTDFTLHWVKQSHGKSLEWIGLVNPNNGGNIYNQNFKGKATLTVDTSSSTAYMELRSLTSEDSSVYYCGRVPLYTSHGMDYWGQGTSVTVSS VL: DIVLTQSPAFLAVSLGQRATISCRASESVDSYDINSMHWYQQKPGQPPKLLIYRASHLQSGIPARFSGSGSRTDFTLTINFVEADDVATYYCQQSNEDPLTFGAGTKLELK :: binds
2) humanized 02A01-VH3-VK2 (antibody, V domains shown) VH: EVQLVQSGAEVKKPGATLKISCKASGYTFTDFTMHWVQQAPGKGLEWIGLVNPNNGGNIYAEKFQGRATLTVDTSTSTAYMELSSLRSEDTSVYYCGRVPLYTSHGMDYWGQGTLVTVSS VL: EIVLTQSPATLSVSPGERATISCRASESVDSYDINSMHWYQQKPGQAPRLLIYRASHLQSGIPARFSGSGSRTDFTLTISSVEPEDFATYYCQQSNEDPLTFGQGTKLEIK :: binds
3) humanized 02A01-VH1-VK3 (antibody, V domains shown) VH: EVQLVQSGPEVVKPGATLKISCKASGYTFTDFTMHWVKQAPGKSLEWIGLVNPNNGGNIYNQNFKGRATLTVDTSTSTAYMELSSLRSEDTSVYYCGRVPLYTSHGMDYWGQGTLVTVSS VL: EIVLTQSPATLSLSPGERATISCRASESVDSYDINSMHWYQQKPGQAPRLLIYRASHLQSGIPARFSGSGSRTDFTLTISSLEPEDFATYYCQQSNEDPLTFGQGTKLEIK :: binds
